measured_on: Jak2 (UniProt O60674)
Sequence (O60674 whole entry, looked up): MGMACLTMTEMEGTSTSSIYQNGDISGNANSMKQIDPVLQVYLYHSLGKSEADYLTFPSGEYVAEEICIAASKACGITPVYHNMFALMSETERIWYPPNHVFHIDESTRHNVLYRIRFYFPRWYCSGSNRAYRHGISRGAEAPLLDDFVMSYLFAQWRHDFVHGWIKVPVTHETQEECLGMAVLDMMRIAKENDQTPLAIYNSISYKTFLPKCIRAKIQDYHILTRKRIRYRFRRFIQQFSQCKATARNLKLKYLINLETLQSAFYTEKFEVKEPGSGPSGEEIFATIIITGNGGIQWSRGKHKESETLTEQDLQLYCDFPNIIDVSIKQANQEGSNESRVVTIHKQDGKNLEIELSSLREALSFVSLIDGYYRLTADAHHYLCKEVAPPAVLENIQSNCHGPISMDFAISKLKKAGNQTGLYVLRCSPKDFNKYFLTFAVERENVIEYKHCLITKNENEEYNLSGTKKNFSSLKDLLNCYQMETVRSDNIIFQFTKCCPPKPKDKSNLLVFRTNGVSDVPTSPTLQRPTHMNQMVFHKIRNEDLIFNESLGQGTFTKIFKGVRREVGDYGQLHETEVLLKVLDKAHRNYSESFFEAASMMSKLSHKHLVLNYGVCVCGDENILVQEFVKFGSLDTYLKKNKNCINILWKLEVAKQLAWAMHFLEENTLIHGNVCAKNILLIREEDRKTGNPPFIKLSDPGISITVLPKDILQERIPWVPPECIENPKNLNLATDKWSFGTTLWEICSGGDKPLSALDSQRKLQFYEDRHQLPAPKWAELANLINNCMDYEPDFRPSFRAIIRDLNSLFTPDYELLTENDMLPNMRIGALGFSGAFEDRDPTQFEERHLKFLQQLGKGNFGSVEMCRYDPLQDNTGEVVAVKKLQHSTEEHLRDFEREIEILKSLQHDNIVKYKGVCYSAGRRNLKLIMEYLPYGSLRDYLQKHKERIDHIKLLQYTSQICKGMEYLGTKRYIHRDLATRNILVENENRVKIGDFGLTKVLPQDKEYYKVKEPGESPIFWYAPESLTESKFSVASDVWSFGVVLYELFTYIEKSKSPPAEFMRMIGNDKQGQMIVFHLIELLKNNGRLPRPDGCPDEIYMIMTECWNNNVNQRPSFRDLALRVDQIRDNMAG
procedure_text: phosphorylation enrichment, bacterial display (enrichment ratio); higher = better substrate or ligand; peptides without Tyr show the background;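 note: 11-residue human phosphosite peptides and single-mutation variants displayed on the E. coli surface, counted by deep sequencing, each peptide's frequency after selection divided by its frequency in the unselected input library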;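 note: frequency after pTyr selection over input frequency; kinase dosed for 20-30% of maximal phosphorylation in three min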
# binarize phosphorylation enrichment: threshold 0.9 inclusive, high side Yes, low side No

                                sequence  group
 0    DHTVNYVLKCR [PLEKHG4_Y1068_R1064H]    Yes
 1        KGKLIYLLRDS [NXPE1_Y350_G353R]     No
 2            RSFPSYFTSHV [NEFL_Y442_YF]    Yes
 3             RLNWIYFKDQT [RS1_Y165_YF]    Yes
 4            QYNIQYSSSAA [ERBB2IP_Y981]     No
 5        NNHGNYIVLLG [ETFDH_Y172_R175L]     No
 6              LARDIYKNDYY [ROS1_Y2110]     No
 7        DHKRQYELLKL [KIF4B_Y684_R680H]     No
 8      TSQSQYSSFRE [CCDC170_Y323_F324S]     No
 9  ARVDTYCRHNF [HLA-DRB1_Y107_A103R_YF]     No
10              STFVPYEIKVQ [L1CAM_Y784]     No
11         NTYEKYWLFYQ [GATM_Y103_P105L]    Yes

Hello, the source for this data is the supplement of paper PMC10065799, in case you need it.
